Tested on: Septoria tritici (SEPTTR)
Assay: One day protectant test against Septoria blotch of wheat
Assay type: in vivo
Conditions: 50 ppm spray; wheat 'Yuma' seedlings; inoculated the day after treatment
Some molecules, each annotated with its measured Percent Disease Control, One Day Protectant, SEPTTR.
Record the value in %, omitting the unit from your answer.

Example molecules with recorded Percent Disease Control, One Day Protectant, SEPTTR:
{"columns": ["chem_smiles", "unit_name", "observed"],
 "data": [
  ["Cc1ccc(-c2ncc(Cl)c(NC3CC3)n2)cc1", "%", 65],
  ["Clc1ccc(-c2ncc(Cl)c(NC3CC3)n2)cc1Cl", "%", 0],
  ["Clc1ccc(-c2nc(NC3CC3)ncc2Cl)cc1", "%", 91],
  ["Clc1cnc(-c2ccccc2)nc1NC1CC1", "%", 38],
  ["Fc1cc(Cl)ccc1-c1ncc(Cl)c(NC2CC2)n1", "%", 38]
]}

Could you now look at the following molecule, please?
[Q] What is its Percent Disease Control, One Day Protectant, SEPTTR for Septoria tritici (SEPTTR)? Entry: `Clc1ccc(-c2ncc(Cl)c(NC3CC3)n2)cc1`
[A] 90
